Some compounds, each annotated with its measured logβ[FeL].
experiment: Fe(III) complex stability constants by potentiometric and pH-dependent UV–vis titrations; type: physicochemical; details: UV-Vis pH-dependent titrations, 1·10^-4 M, M:L 1:1, T = 25°C, I = 0.1 M NaClO4

{"Compound": "O=C1CCCN(O)C(=O)CCNC(=O)CCCN(O)C(=O)CCNC(=O)CCCN(O)C(=O)CCN1 [FOX 2-3]", "logβ[FeL]": "26.70 (9)"}
{"Compound": "O=C1CCCCN(O)C(=O)CCNC(=O)CCCCN(O)C(=O)CCNC(=O)CCCCN(O)C(=O)CCN1 [FOX 2-4]", "logβ[FeL]": "28.71 (7)"}
{"Compound": "O=C1CCCCCN(O)C(=O)CCCNC(=O)CCCCCN(O)C(=O)CCCNC(=O)CCCCCN(O)C(=O)CCCN1 [FOX 3-5]", "logβ[FeL]": "28.59 (3)"}
{"Compound": "O=C1CCCCCN(O)C(=O)CCNC(=O)CCCCCN(O)C(=O)CCNC(=O)CCCCCN(O)C(=O)CCN1 [FOX 2-5]", "logβ[FeL]": "31.32 (8)"}
